Test system: T-47D breast
PROTOCOL TEXT: NCI-60 one-dose screen, 48 h (100 = growth as untreated, 0 = no growth, -100 = all killed)
CONDITION INFO: 10 µM unless noted
This is part of a sample that, as a whole, favours compounds with a hit. Of some 83,000 tested, about 20% had one in any assay. Activity calls are given as the source filed them. How the source made its calls: active means growth percent below 10; inactive means the rest.
Entries and their growth
RECORDED ENDPOINT: growth

compound=Nc1cc2ccccc2c(=O)n1NC(=O)c1ccc(Br)cc1 recorded_endpoint=growth measured="94.8% (inactive)"
compound=CN(C)CCCNC(=S)Nc1ccc(/C=C/c2ccc(Cl)cc2)cc1 recorded_endpoint=growth measured="-48.7% (active)"
compound="CCN1C(=O)N(CC)C2NNC(Sc3c(C(=O)O)c4ccccc4n(CC(C)C)c3=O)=NC21 (centres undefined)" recorded_endpoint=growth measured="72.5% (inactive)"
compound="COc1cc(C2CC(c3ccc(C(F)(F)F)cc3)=Nc3c(N)nc(N)nc3N2)ccc1Oc1nc(Nc2ccc(F)cc2)nc(N(C)C)n1 (centres undefined)" recorded_endpoint=growth measured="57.8% (inactive)"
